The measured values listed here are drawn from PubChem BioAssay (NCI).

# System: SK-OV-3 ovarian
# assay_info: NCI-60 one-dose screen, 48 h
# measurement_parameters: 10 µM unless noted
About 83,000 compounds went through this panel and 20% of them were active in at least one assay; those are over-represented in the sample as a whole. Active and inactive are the calls of the source. Rule for the calls: active = growth percent below 10; inactive = the rest.
Assign a class; possible classes are yes (1) for active, no (0) for inactive

Examples from the recorded data:
1) O=C(/C=C/c1ccccc1)c1ccccc1O ... no (0)
2) O=C1C=CC(=O)N1c1cccc2c1CCCC2 ... no (0)
3) Cc1ccc(/C=C2\CNC/C(=C\c3ccc(C)cc3)C2=O)cc1 ... no (0)
4) CCCCCCCCCCCC[n+]1ccc2ccccc2c1 ... yes (1)
5) CCCOC(=O)c1nc(N(CC2CCCCC2)C(=O)NC)sc1/N=C/c1ccccc1 ... no (0)
6) CC1(C)CCCC2=C1C(=O)N(SC(Cl)(Cl)Cl)C2=O ... no (0)
7) O=C(O)c1cccc2cccc(-c3c4ccc(=O)c(O)c-4oc4c(O)c(O)ccc34)c12 ... no (0)
8) N#C/C(=N\Nc1ccc(Cl)cc1)C(=O)C1CC1 ... no (0)
9) c1ccc(C2NCCNC2c2ccccc2)cc1 (stereo unspecified) ... no (0)
10) CCCOS(=O)(=O)c1ccccc1 ... no (0)

**Query** Hello, I am checking results. What call was entered for "Oc1c(Cl)cc(Cl)cc1C(c1cc(Cl)cc(Cl)c1O)C(Cl)(Cl)Cl" ?
**Result** yes (1)

**Query** Hello, I am checking results. What call was entered for CCCCCCCCCCCCCCCC[N+]1(C)CCCC1c1cccnc1 (stereo unspecified) ?
**Result** no (0)
